Where do these numbers come from? They come from ChEMBL document CHEMBL1649419.

# METHOD_SUMMARY: Volume of distribution at steady state in dog at 0.52 mg/kg, iv and 1.8 mg/kg, po
# Assay type: ADME, organism-based, Canis lupus familiaris
# EXPERIMENTAL_PARAMETERS: in vivo, read-out: Vdss

>  <MOL_SMILES>
N#Cc1ccccc1Cn1c(N2CCC[C@@H](N)C2)nccc1=O.O=C(O)C(F)(F)F

>  <Vd (L/kg)>
3

$$$$

----------
# METHOD_SUMMARY: Clearance in dog at 0.90 mg/kg, iv and 2.7 mg/kg, po
# Assay type: ADME, organism-based, Canis lupus familiaris
# EXPERIMENTAL_PARAMETERS: in vivo, 0.9 mg/kg

>  <MOL_SMILES>
Cn1c(=O)cc(N2CCC[C@@H](N)C2)n(Cc2cc(F)ccc2C#N)c1=O.O=C(O)C(F)(F)F

>  <UNIT_TAG>
mL/min/kg

>  <clearance>
18

$$$$

----------
# METHOD_SUMMARY: Volume of distribution at steady state in dog at 0.8 mg/kg, iv and 2.5 mg/kg, po
# Assay type: ADME, organism-based, Canis lupus familiaris
# EXPERIMENTAL_PARAMETERS: in vivo, read-out: Vdss
EXPERIMENTAL_READOUT: Vd (L/kg)

>  <MOL_SMILES>
Cl.N#Cc1ccccc1Cn1c(N2CCC[C@@H](N)C2)ncc(Cl)c1=O

>  <EXPERIMENTAL_READOUT>
Vd

>  <MEASURED_NUMBER>
1.9

$$$$

----------
# METHOD_SUMMARY: Half life in monkey at 1.1 mg/kg, iv
# Type: ADME, organism-based, Macaca mulatta
# Design: dose 1.1 mg/kg, route intravenous
# EXPERIMENTAL_PARAMETERS: rhesus monkey, in vivo
EXPERIMENTAL_READOUT: half-life (h)

>  <MOL_SMILES>
N#Cc1ccccc1Cn1c(N2CCC[C@@H](N)C2)ncc(Br)c1=O

>  <EXPERIMENTAL_READOUT>
half-life

>  <MEASURED_NUMBER>
4.2

$$$$

----------
# METHOD_SUMMARY: AUC in dog at 3 mg/kg, po
# Format: ADME, organism-based, Canis lupus familiaris
# Set-up: dose 3 mg/kg, route oral
# EXPERIMENTAL_PARAMETERS: plasma

>  <MOL_SMILES>
Cl.N#Cc1ccccc1Cn1c(N2CCC[C@@H](N)C2)ncc(Br)c1=O

>  <AUC (ng·h/mL)>
14700

$$$$

----------
# METHOD_SUMMARY: Volume of distribution at steady state in dog at 1 mg/kg, iv and 3 mg/kg, po
# Format: ADME, organism-based, Canis lupus familiaris
# EXPERIMENTAL_PARAMETERS: in vivo, read-out: Vdss
EXPERIMENTAL_READOUT: Vd (L/kg)

>  <MOL_SMILES>
Cl.N#Cc1ccccc1Cn1c(N2CCC[C@@H](N)C2)ncc(Br)c1=O

>  <MEASURED_NUMBER>
1.7

$$$$

----------
# METHOD_SUMMARY: Half life in dog at 2.5 mg/kg, po
# Format: ADME, organism-based, Canis lupus familiaris
# Set-up: dose 2.5 mg/kg, route oral
# EXPERIMENTAL_PARAMETERS: in vivo

>  <MOL_SMILES>
Cl.N#Cc1ccccc1Cn1c(N2CCC[C@@H](N)C2)ncc(Cl)c1=O

>  <half-life (h)>
4.8

$$$$

----------
# METHOD_SUMMARY: Half life in human liver microsomes by LC/MS analysis
# Format: ADME, Microsome
EXPERIMENTAL_READOUT: half-life

>  <MOL_SMILES>
Cn1c(=O)cc(N2CCC[C@@H](N)C2)n(Cc2cc(F)ccc2Cl)c1=O

>  <EXPERIMENTAL_READOUT>
half-life

>  <RESULT>
> 3.33 h

$$$$
>  <MOL_SMILES>
N#Cc1ccccc1Cn1c(N2CCC[C@@H](N)C2)ncc(/C=C/c2ccccc2)c1=O

>  <EXPERIMENTAL_READOUT>
half-life

>  <RESULT>
> 3.33 h

$$$$
>  <MOL_SMILES>
CCc1cnc(N2CCC[C@@H](N)C2)n(Cc2ccccc2C#N)c1=O

>  <EXPERIMENTAL_READOUT>
half-life

>  <RESULT>
> 3.33 h

$$$$
>  <MOL_SMILES>
N#Cc1ccccc1Cn1c(N2CCC[C@@H](N)C2)ncc(I)c1=O

>  <EXPERIMENTAL_READOUT>
half-life

>  <RESULT>
2.68 h

$$$$
>  <MOL_SMILES>
N#Cc1ccccc1Cn1c(N2CCC[C@@H](N)C2)nc2c(c1=O)CCCC2

>  <EXPERIMENTAL_READOUT>
half-life

>  <RESULT>
1.38 h

$$$$
>  <MOL_SMILES>
N#Cc1ccsc1Cn1c(N2CCC[C@@H](N)C2)ncc(Br)c1=O

>  <EXPERIMENTAL_READOUT>
half-life

>  <RESULT>
> 3.33 h

$$$$
>  <MOL_SMILES>
N#Cc1ccccc1Cn1c(N2CCC[C@@H](N)C2)ncc(F)c1=O

>  <EXPERIMENTAL_READOUT>
half-life

>  <RESULT>
> 3.33 h

$$$$
>  <MOL_SMILES>
Cn1c(=O)c(Cl)c(N2CCC[C@@H](N)C2)n(Cc2ccccc2C#N)c1=O

>  <EXPERIMENTAL_READOUT>
half-life

>  <RESULT>
2.73 h

$$$$
>  <MOL_SMILES>
N#Cc1ccccc1Cn1c(N2CCC[C@@H](N)C2)ncc(-c2ccccc2)c1=O

>  <EXPERIMENTAL_READOUT>
half-life

>  <RESULT>
1.17 h

$$$$
>  <MOL_SMILES>
Cn1c(=O)cc(N2CCC[C@@H](N)C2)n(Cc2ccccc2C#N)c1=O

>  <EXPERIMENTAL_READOUT>
half-life

>  <RESULT>
2.02 h

$$$$
>  <MOL_SMILES>
Cn1c(=O)cc(N2CCC[C@@](C)(N)C2)n(Cc2cc(F)ccc2C#N)c1=O

>  <EXPERIMENTAL_READOUT>
half-life

>  <RESULT>
> 3.33 h

$$$$
>  <MOL_SMILES>
N#Cc1ccccc1Cn1c(N2CCC[C@@H](N)C2)ncc(-c2ccoc2)c1=O

>  <EXPERIMENTAL_READOUT>
half-life

>  <RESULT>
0.933 h

$$$$
>  <MOL_SMILES>
N#Cc1ccccc1Cn1c(N2CCC[C@@H](N)C2)nc(-c2ccccc2)cc1=O

>  <EXPERIMENTAL_READOUT>
half-life

>  <RESULT>
1.98 h

$$$$
>  <MOL_SMILES>
Cc1nc(N2CCC[C@@H](N)C2)n(Cc2ccccc2C#N)c(=O)c1Br

>  <EXPERIMENTAL_READOUT>
half-life

>  <RESULT>
> 3.33 h

$$$$
>  <MOL_SMILES>
Cn1c(=O)cc(N2CCC[C@@H](N)C2)n(Cc2ccc(F)cc2Cl)c1=O

>  <EXPERIMENTAL_READOUT>
half-life

>  <RESULT>
> 3.33 h

$$$$
>  <MOL_SMILES>
N#Cc1ccccc1Cn1c(N2CCC[C@@H](N)C2)ncc(Br)c1=O

>  <EXPERIMENTAL_READOUT>
half-life

>  <RESULT>
> 3.33 h

$$$$
>  <MOL_SMILES>
Cn1c(=O)cc(N2CCC[C@@H](N)C2)n(Cc2ccccc2Br)c1=O

>  <EXPERIMENTAL_READOUT>
half-life

>  <RESULT>
> 3.33 h

$$$$
>  <MOL_SMILES>
N[C@@H]1CCCN(c2cc(=O)[nH]c(=O)n2Cc2ccccc2Br)C1

>  <EXPERIMENTAL_READOUT>
half-life

>  <RESULT>
> 3.33 h

$$$$
>  <MOL_SMILES>
Cn1c(=O)cc(N2CCC[C@@H](N)C2)n(Cc2cc(F)ccc2Br)c1=O

>  <EXPERIMENTAL_READOUT>
half-life

>  <RESULT>
1.5 h

$$$$
>  <MOL_SMILES>
N#Cc1ccccc1Cn1c(N2CCC[C@@H](N)C2)nccc1=O

>  <EXPERIMENTAL_READOUT>
half-life

>  <RESULT>
> 3.33 h

$$$$
>  <MOL_SMILES>
N#Cc1ccc(F)cc1Cn1c(N2CCC[C@@H](N)C2)ncc(Br)c1=O

>  <EXPERIMENTAL_READOUT>
half-life

>  <RESULT>
> 3.33 h

$$$$
>  <MOL_SMILES>
N#Cc1ccccc1Cn1c(N2CCC[C@@H](N)C2)ncc(Cl)c1=O

>  <EXPERIMENTAL_READOUT>
half-life

>  <RESULT>
> 3.33 h

$$$$
>  <MOL_SMILES>
N#Cc1ccccc1Cn1c(N2CCC[C@@H](N)C2)ncc(/C=C/c2cccnc2)c1=O

>  <EXPERIMENTAL_READOUT>
half-life

>  <RESULT>
> 3.33 h

$$$$
>  <MOL_SMILES>
Cn1c(=O)cc(N2CCC[C@@H](N)C2)n(Cc2cc(Cl)ccc2Cl)c1=O

>  <EXPERIMENTAL_READOUT>
half-life

>  <RESULT>
2.75 h

$$$$
>  <MOL_SMILES>
C=Cc1cnc(N2CCC[C@@H](N)C2)n(Cc2ccccc2C#N)c1=O

>  <EXPERIMENTAL_READOUT>
half-life

>  <RESULT>
2.73 h

$$$$
>  <MOL_SMILES>
COc1cnc(N2CCC[C@@H](N)C2)n(Cc2ccccc2C#N)c1=O

>  <EXPERIMENTAL_READOUT>
half-life

>  <RESULT>
> 3.33 h

$$$$
>  <MOL_SMILES>
Cn1c(=O)cc(N2CCC[C@@H](N)C2)n(Cc2cc(F)ccc2C#N)c1=O

>  <EXPERIMENTAL_READOUT>
half-life

>  <RESULT>
> 3.33 h

$$$$
>  <MOL_SMILES>
N#Cc1ccccc1Cn1c(N2CCC[C@@H](N)C2)ncc(/C=C/c2ccc(F)cc2)c1=O

>  <EXPERIMENTAL_READOUT>
half-life

>  <RESULT>
3.1 h

$$$$
>  <MOL_SMILES>
CCn1c(=O)cc(N2CCC[C@@H](N)C2)n(Cc2ccccc2C#N)c1=O

>  <EXPERIMENTAL_READOUT>
half-life

>  <RESULT>
> 3.33 h

$$$$
>  <MOL_SMILES>
Cc1nc(N2CCC[C@@H](N)C2)n(Cc2ccccc2C#N)c(=O)c1C

>  <EXPERIMENTAL_READOUT>
half-life

>  <RESULT>
> 3.33 h

$$$$
>  <MOL_SMILES>
CC#Cc1cnc(N2CCC[C@@H](N)C2)n(Cc2ccccc2C#N)c1=O

>  <EXPERIMENTAL_READOUT>
half-life

>  <RESULT>
> 3.33 h

$$$$
>  <MOL_SMILES>
N#Cc1ccc(F)cc1Cn1c(N2CCC[C@@H](N)C2)ncc(F)c1=O

>  <EXPERIMENTAL_READOUT>
half-life

>  <RESULT>
> 3.33 h

$$$$
>  <MOL_SMILES>
N#Cc1ccc(F)cc1Cn1c(N2CCC[C@@H](N)C2)ncc(Cl)c1=O

>  <EXPERIMENTAL_READOUT>
half-life

>  <RESULT>
> 3.33 h

$$$$
>  <MOL_SMILES>
N#Cc1ccccc1Cn1c(N2CCC[C@@H](N)C2)cc(=O)[nH]c1=O

>  <EXPERIMENTAL_READOUT>
half-life

>  <RESULT>
2.15 h

$$$$
>  <MOL_SMILES>
N#Cc1ccccc1Cn1c(N2CCC[C@@H](N)C2)ncc(C#CCO)c1=O

>  <EXPERIMENTAL_READOUT>
half-life

>  <RESULT>
> 3.33 h

$$$$
>  <MOL_SMILES>
N#Cc1ccccc1Cn1c(N2CCC[C@@H](N)C2)ncc(-c2cc[nH]c2)c1=O

>  <EXPERIMENTAL_READOUT>
half-life

>  <RESULT>
1.02 h

$$$$
>  <MOL_SMILES>
C#Cc1cnc(N2CCC[C@@H](N)C2)n(Cc2ccccc2C#N)c1=O

>  <EXPERIMENTAL_READOUT>
half-life

>  <RESULT>
> 3.33 h

$$$$
